Value source: PubChem BioAssay (NCATS)

Experiment: Quantitative High-Throughput drug screen in 47 multiple myeloma cell lines against the NCATS MIPE library collection: JJN3_DSMZ cell viability assay (AID 1918966; note: nearly all actives have a fitted effect of over 50% in size)
Details: JJN3 myeloma cells viability, CellTiter-Glo ATP, 48 h; series mostly up to 45.8 µM
Results filed as inconclusive are left out. The source made the active and inactive calls. Calls come from the whole dose curve; as a rule, active = well fitted cell-killing curve with a large enough effect; inconclusive = small, poorly fitted or top-dose-only effect, or effect the other way; inactive = no such curve, though single readings can be large or run the other way.
Result category, one only: active, inactive

# lookup: test call for COc1ccc(COc2cc3oc(=O)c4cc(C(C)O)ccc4c3cc2OC)cc1 (configuration not stated)
active

# lookup: test call for Nc1ccc(S(=O)(=O)Nc2ccnn2-c2ccccc2)cc1
inactive

# lookup: test call for CCCc1nn(C)c2c(=O)[nH]c(-c3cc(S(=O)(=O)N4CCN(C)CC4)ccc3OCC)nc12
active

# lookup: test call for CCN(CC)CCCC(C)Nc1ccnc2cc(Cl)ccc12 (configuration not stated)
inactive

# lookup: test call for CCOC(=O)C1=C[C@]2(CC)CCCN3CCc4c(n1c1ccccc41)[C@@H]32
active

# lookup: test call for Oc1ccc(C2CNCCc3c2cc(O)c(O)c3Cl)cc1 (configuration not stated)
inactive

# lookup: test call for COc1cc(Nc2ncc3c(n2)-c2ccc(Cl)cc2C(c2c(F)cccc2OC)=NC3)ccc1C(=O)O
inactive

---

Experiment: qHTS Screen of the MIPE 4.0 Collection Against Ewings Sarcoma (EW8) (AID 1259255); note: nearly all actives have a fitted effect of over 35% in size;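 for viability: 100% = DMSO-treated cells and 0% = medium-only wells without cells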
Conditions: EW8 Ewing sarcoma viability, CellTiter-Glo, 48 h; series mostly up to 45.8 µM
Results filed as inconclusive are left out. Calls of active or inactive are those of the source. The call rests on the fitted dose curve; in most records, active means well fitted inhibition curve with a large enough effect; inconclusive means small, poorly fitted or top-dose-only effect; inactive means no such curve, though single readings can be large or run the other way.
Result category, one only: yes = active, no = inactive

# lookup: test call for CCOc1cc(N2CCC(O)CC2)ccc1Nc1ncc2c(n1)N(C)c1ccccc1C(=O)N2C
yes

# lookup: test call for Cc1cnc(NC(=O)C2=C(O)c3ccccc3S(=O)(=O)N2C)s1
no

# lookup: test call for NC(=O)C1CCCc2c1[nH]c1ccc(Cl)cc21 (stereo not drawn)
no

---

Test: Quantitative High-Throughput drug screen in 47 multiple myeloma cell lines against the NCATS MIPE library collection: U266_ATCC cell viability assay (AID 1919864); note: nearly all actives have a fitted effect of over 35% in size
Conditions: U266 myeloma viability, CellTiter-Glo ATP luminescence, 48 h; series mostly up to 45.8 µM
Inconclusive results are not listed. Activity calls are given as the source filed them. The call rests on the fitted dose curve; in most records, active means well fitted cell-killing curve with a large enough effect; inconclusive means small, poorly fitted or top-dose-only effect, or effect the other way; inactive means no such curve, though single readings can be large or run the other way.
Result category, one only: class 1 = active, class 0 = inactive

# lookup: test call for O=C(Nc1nc2ccccc2n1CCN1CCOCC1)c1cccc([N+](=O)[O-])c1
class 1

# lookup: test call for O=C(O)[C@@H](c1ccc(OCc2ccc3ccccc3n2)cc1)C1CCCC1
class 0

# lookup: test call for COc1ccccc1-c1cccc(-c2c(O)c3cc(C#N)c(Cl)cc3[nH]c2=O)c1
class 0

# lookup: test call for O=C(O)COCCN1CCN(C(c2ccccc2)c2ccc(Cl)cc2)CC1 (stereo not given)
class 0

# lookup: test call for CC(C)(C)NCC(O)c1ccc(O)c(CO)c1 (stereo not given)
class 0

---

Experiment: Quantitative High-Throughput drug screen in 47 multiple myeloma cell lines against the NCATS MIPE library collection: KMS34_JCRB cell viability assay (AID 1918985); note: nearly all actives have a fitted effect of over 40% in size
Details: KMS34 myeloma viability, CellTiter-Glo ATP luminescence, 48 h; series mostly up to 45.8 µM
Records with an inconclusive call do not appear. Active and inactive are the calls of the source. Calls come from the whole dose curve; as a rule, active = well fitted cell-killing curve with a large enough effect; inconclusive = small, poorly fitted or top-dose-only effect, or effect the other way; inactive = no such curve, though single readings can be large or run the other way.
Result category, one only: y = active, n = inactive

# lookup: test call for CCCc1nc2c(C)cc(-c3nc4ccccc4n3C)cc2n1Cc1ccc(-c2ccccc2C(=O)O)cc1
n

# lookup: test call for O=C(O)[C@@H](c1ccc(OCc2ccc3ccccc3n2)cc1)C1CCCC1
n

# lookup: test call for CCn1cc(C(=O)O)c(=O)c2cc(F)c(N3CCNC(C)C3)c(F)c21 (centres undefined)
n

# lookup: test call for NC(=O)c1ccc(I)c([N+](=O)[O-])c1
n

# lookup: test call for Cc1cn[nH]c1
y

# lookup: test call for Cc1c(CN2CCN(C(=O)C(C)C)CC2)sc2c(N3CCOCC3)nc(-c3cnc(N)nc3)nc12
y

# lookup: test call for CCCCCCCc1ccc(CCc2cccc(O)c2C(=O)O)cc1
n

# lookup: test call for COc1ccc(CC2=NN3C([C@@H](CCc4ccccc4)[C@@H](C)O)=NC(C)C3C(=O)N2)cc1OC (some centres undefined)
n

# lookup: test call for COc1ccccc1-c1cccc(-c2c(O)c3cc(C#N)c(Cl)cc3[nH]c2=O)c1
n

# lookup: test call for CS(=O)(=O)c1ccc(C(=O)Nc2ccc(Cl)c(-c3ccccn3)c2)c(Cl)c1
n

# lookup: test call for COc1cc2c(cc1OC)CN(CCc1ccc(NC(=O)c3cccc4c(=O)c5cccc(OC)c5[nH]c34)cc1)CC2
n

# lookup: test call for CCc1ccc(CCOc2ccc(CC3SC(=O)NC3=O)cc2)nc1 (centres undefined)
n

# lookup: test call for Cc1n[nH]c(C)c1Cc1sc2c(c1C(=O)N1C[C@H](O)CO1)c(=O)n(C)c(=O)n2CC(C)C
n

# lookup: test call for Cc1cc(C=c2sc3nc4ccccc4n3c2=O)c(C)n1-c1ccccc1
y

# lookup: test call for O=c1n(CCCN2CCN(c3cccc(Cl)c3)CC2)nc2ccccn12
n

# lookup: test call for Nc1ccc(S(=O)(=O)Nc2ccnn2-c2ccccc2)cc1
n

# lookup: test call for Cc1cnc(NC(=O)C2=C(O)c3ccccc3S(=O)(=O)N2C)s1
n

# lookup: test call for Nc1cccc(S(=O)(=O)N2CCCN(S(=O)(=O)c3ccc4c(c3)OCCO4)CC2)c1
n

# lookup: test call for Cc1[nH]c(=O)c(C#N)cc1-c1ccncc1
n
